assay-method-text: Plasma pharmacokinetics of unlabeled almonertinib and metabolite HAS-719
Assay type: in vivo, human
setup-conditions: male, human, po, 110 mg
parameter: Cmax (ng/mL)

>>> endpoint_value("C=CC(=O)Nc1cc(Nc2nccc(-c3cn(C4CC4)c4ccccc34)n2)c(OC)cc1N(C)CCN(C)C")
119

---

assay-method-text: Plasma pharmacokinetics of unlabeled almonertinib and metabolite HAS-719
Format: in vivo, human
setup-conditions: male, human, po, 110 mg
parameter: AUC(0-inf) (ng·h/mL)

>>> endpoint_value("C=CC(=O)Nc1cc(Nc2nccc(-c3cn(C4CC4)c4ccccc34)n2)c(OC)cc1N(C)CCN(C)C [HS-10296, almonertinib]")
3160
